Reference source: ChEMBL document CHEMBL5370626

assay_protocol: Cmax in Sprague-Dawley rat plasma at 100 mg/kg, po measured up to 48 hrs by LC-MS/MS analysis
Format: ADME, organism-based
Design: dose 100 mg/kg, time < 48 hrs, route po
quantity: Cmax (ng/mL)
Report the figure in ng/mL without appending any unit label.

Query: State its Cmax: O=C(Cc1cccc(Oc2ccccc2)c1)Nc1nnc(N[C@@H]2CCN(c3cccnn3)C2)s1
Result: 487

* * *

assay_protocol: Tmax in Sprague-Dawley rat plasma at 100 mg/kg, po measured up to 48 hrs by LC-MS/MS analysis
Assay type: ADME, organism-based
quantity: Tmax (h)
# unit: h | format: bare number

Query: Report Tmax for O=C(Cc1cccc(Oc2ccccc2)c1)Nc1nnc(N[C@@H]2CCN(c3cccnn3)C2)s1
Result: 2
